Test system: HIV-1 AZT^R strain (67N, 70R, 215F, 219Q)
Experiment: microbe, parasite or virus in culture
Type: cell-based, Human Immunodeficiency Virus type-1
Conditions: Human immunodeficiency virus 1, MT4, read-out: EC50 AZT^R
Would you mind telling me the reported EC50 of each entry?
Give bare numbers, in µM.

molecule: S=C(NCCc1c[nH]c2ccccc12)Nc1ccc(Br)cc1 [Compound 8]
reported_measurement: 9
--
molecule: Cc1ccnc2c1NC(=O)c1cccnc1N2C1CC1 [Nevirapine]
reported_measurement: 0.078

Now examine the next entry.
Query :: Fill in the blank: the reported EC50 of O=C1Nc2ccc(Cl)cc2[C@@](C#CC2CC2)(C(F)(F)F)O1 [Efavirenz] is ____.
Result :: 0.001

====

System: S. epidermidis (MRSE)
Test: MIC against hospital strains
Details: Staphylococcus epidermidis, hospital S. epidermidis MRSE strain 433/11
test_readout: MIC (µg/mL)
Answers are plain numbers, in µg/mL.

Completed entries (count: 3):
compound: S=C(NCCc1c[nH]c2ccccc12)Nc1ccccc1Br
reported_measurement: 50

compound: C=C(C)CNC(=S)NCCc1c[nH]c2ccccc12
reported_measurement: 50

compound: S=C(NCCc1c[nH]c2ccccc12)Nc1ccc(Cl)c(Cl)c1
reported_measurement: 6.25

// for each compound in input: emit MIC
1. S=C(NCCc1c[nH]c2ccccc12)Nc1cccc(Cl)c1
2. O=C(O)c1cn(C2CC2)c2cc(N3CCNCC3)c(F)cc2c1=O [Ciprofloxacin, reference compound]

Result ::
[25, 50]

====

Assay: Cytotoxicity, MTT method
Settings: human
Could you please report measured CC50 for the items listed next?
Answers are plain numbers, in µM.

entry_smiles: COc1ccc(NC(=S)NCCc2c[nH]c3ccccc23)cc1
measurement_units: µM
CC50: 32

Would you kindly look at the next entry?
Query :: I'd like to know its CC50. The compound in question is `Cc1ccc(NC(=S)NCCc2c[nH]c3ccccc23)cc1`
Result :: 33

====

Assay: Cytotoxicity, MTT method
Settings: Syrian hamster (Mesocricetus auratus)
test_readout: CC50 (µM)
One number for each entry, in µM.

entry_smiles: Cc1ccc(NC(=S)NCCc2c[nH]c3ccccc23)cc1
CC50 [µM]: 16

Now consider a different compound.
Query :: Endpoint output: CC50 of `COc1ccc(NC(=S)NCCc2c[nH]c3ccccc23)cc1` . Value?
Result :: 44

====

Test system: S. epidermidis (MRSE)
Assay: MIC against hospital strains
Conditions: Staphylococcus epidermidis, hospital S. epidermidis MRSE strain 439/11
test_readout: MIC
Kindly format the answer as number then unit.

Batch request: MIC per item, same order as input.
1. C=C(C)CNC(=S)NCCc1c[nH]c2ccccc12
2. S=C(NCCc1c[nH]c2ccccc12)Nc1cccc(Cl)c1
3. S=C(NCCc1c[nH]c2ccccc12)Nc1ccc(Cl)c(Cl)c1
4. O=C(O)c1cn(C2CC2)c2cc(N3CCNCC3)c(F)cc2c1=O [Ciprofloxacin, reference compound]
5. S=C(NCCc1c[nH]c2ccccc12)Nc1ccccc1Br

Result ::
1. 50 µg/mL
2. 25 µg/mL
3. 6.25 µg/mL
4. 50 µg/mL
5. 50 µg/mL

====

Target: S. aureus topoisomerase IV (Staphylococcus aureus, UniProt P0C1S7+P0C1U9)
Sequence (P0C1U9 whole entry): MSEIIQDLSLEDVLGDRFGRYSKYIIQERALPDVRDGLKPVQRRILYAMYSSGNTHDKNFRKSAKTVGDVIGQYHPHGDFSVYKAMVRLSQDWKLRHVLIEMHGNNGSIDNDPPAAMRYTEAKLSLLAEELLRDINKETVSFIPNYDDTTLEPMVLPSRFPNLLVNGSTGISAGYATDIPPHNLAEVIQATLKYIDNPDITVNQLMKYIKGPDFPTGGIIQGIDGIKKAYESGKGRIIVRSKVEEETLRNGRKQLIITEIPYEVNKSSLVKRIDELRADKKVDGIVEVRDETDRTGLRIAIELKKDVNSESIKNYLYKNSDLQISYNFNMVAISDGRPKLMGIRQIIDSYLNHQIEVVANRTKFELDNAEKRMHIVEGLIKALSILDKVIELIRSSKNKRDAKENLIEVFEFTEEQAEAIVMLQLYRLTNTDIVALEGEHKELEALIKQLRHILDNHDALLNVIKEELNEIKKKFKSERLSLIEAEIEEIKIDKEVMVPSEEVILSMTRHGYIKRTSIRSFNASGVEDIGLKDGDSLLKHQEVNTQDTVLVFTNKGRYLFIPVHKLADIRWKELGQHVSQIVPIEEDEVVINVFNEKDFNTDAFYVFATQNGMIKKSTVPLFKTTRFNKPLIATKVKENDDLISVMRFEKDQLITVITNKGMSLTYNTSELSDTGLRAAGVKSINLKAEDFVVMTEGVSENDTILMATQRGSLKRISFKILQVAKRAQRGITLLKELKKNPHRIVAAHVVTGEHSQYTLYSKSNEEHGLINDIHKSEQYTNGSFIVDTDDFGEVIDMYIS
Sequence (P0C1S7 whole entry): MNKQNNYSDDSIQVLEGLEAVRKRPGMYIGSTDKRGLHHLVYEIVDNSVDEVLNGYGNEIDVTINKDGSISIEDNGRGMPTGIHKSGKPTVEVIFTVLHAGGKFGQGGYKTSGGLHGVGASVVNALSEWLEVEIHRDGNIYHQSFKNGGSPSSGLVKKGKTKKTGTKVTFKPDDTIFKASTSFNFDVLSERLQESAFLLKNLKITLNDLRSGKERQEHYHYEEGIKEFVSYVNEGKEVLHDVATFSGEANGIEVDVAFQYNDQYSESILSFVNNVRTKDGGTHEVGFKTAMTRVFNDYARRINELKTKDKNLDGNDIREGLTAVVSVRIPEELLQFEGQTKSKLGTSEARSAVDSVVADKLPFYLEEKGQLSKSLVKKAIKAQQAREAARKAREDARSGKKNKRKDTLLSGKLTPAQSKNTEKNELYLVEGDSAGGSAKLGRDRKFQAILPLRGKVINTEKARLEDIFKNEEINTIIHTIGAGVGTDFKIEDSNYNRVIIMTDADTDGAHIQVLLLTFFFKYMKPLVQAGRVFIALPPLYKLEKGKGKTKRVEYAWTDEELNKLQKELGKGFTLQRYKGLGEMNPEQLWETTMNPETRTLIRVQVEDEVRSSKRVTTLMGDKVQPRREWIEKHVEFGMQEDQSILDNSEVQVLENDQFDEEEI
Experiment: biochemical
test_readout: pIC50
Answers are plain numbers, as −log10 of the molar value.

Query :: For the molecule shown here, `S=C(NCCc1c[nH]c2ccccc12)Nc1ccc(Cl)c(Cl)c1` , give the reported pIC50.
Result :: 4.10
